All figures here come from patent US20160237160A1.

# MEASURED TARGET: T1, TPP-2305 (hTNFRSF12Aaa28-80) (Human, UniProt Q9NP84 28-80)
# T1 construct: monomeric extracellular domain, bought; also called purified recombinant human TWEAKR protein; soluble monomeric TWEAKR
# ASSAY DETAILS: SPR (Biacore T100), IgG captured, TPP-2305 injected, 1:1 model
Recorded koff, one value per entry.

BINDER | koff
18.3.3(TPP-2193) (antibody, mouse IgG2a, kappa, V domains shown, Murine IgG2a; variable domains from WO2009/020933 with constant region added) VH: EVKLGESGGGLVQPGGSMKLSCVASGFPFTKYWMNWVRQSPEKGLEWVAEIRLKSDNYATHYAESAKGRFTISRDDSRSSVYLQMNNLRAEDTAIYYCSPTYADTMDYWGQGTSVTVSS VL: DIVLTQSPASLAVSLGQRATISCKASQSVSTSTYSYMQWYQQRPGQSPKLLIKYASKLDSGVPARFSGSGSGTDFTLNIHPVEEEDTATYYCQHSWELPYTFGGGTRLEIKR | 0.0285 s⁻¹

Field: next binder
For record P3G5(TPP-2195) (antibody, mouse IgG2a, kappa, V domains shown, Murine IgG2a; variable domains from WO2009/140177 with constant region added) VH: QVQLQQSGPEVVRPGVSVKISCKGSGYTFTDYGIHWVKQSHAKSLEWIGVISTYNGYTNYNQKFKGKATMTVDKSSSTAYMELARLTSEDSAIYYCARAYYGNLYYAMDYWGQGTSVTVSS VL: DIVLTQSPASLAVSLGQRATISCRANKSVSTSSYSYMHWYQQKPGQPPKLLIKYASNLESGVPARFSGSGSGTDFILNIHPVEEEDAATYYCQHSRELPFTFGSGTKLEIKR the listed koff is 0.00122 s⁻¹
